Measured viability, T/C, listed per entry for reference.
system: OVCAR-5 complex spheroid (HUVEC/MSC), viability % T/C; assay: Anticancer human tumor OVCAR-5 cell line growth inhibition [Asc]; settings: second compound 0.03 µM; first compound 0.00316 µM; active compounds read low;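 further: spheroids exposed to agents for 7 days before readout; 100% = DMSO vehicle-treated wells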
Give the number; % is assumed, so skip it.

In the examples that follow, each entry is paired with its recorded viability, T/C.
Inquiry: Using the record for CNC(C)C(=O)NC1CN(S(=O)(=O)c2cccc(S(=O)(=O)N3CCC4CCC(C(=O)NC(c5ccccc5)c5ccccc5)N4C(=O)C(NC(=O)C(C)NC)C3)c2)CCC2CCC(C(=O)NC(c3ccccc3)c3ccccc3)N2C1=O (stereo unspecified) + CCN1C(C(=O)NC23CCC(C(=O)O)(CC2)CC3)C(c2cccc(Cl)c2F)C2(C(=O)Nc3cc(Cl)ccc32)C12CCCCC2 , report its viability, T/C.
Reply text: 97.3

Inquiry: Using the record for Cn1ncnc1[C@H]1c2n[nH]c(=O)c3cc(F)cc(c23)N[C@@H]1c1ccc(F)cc1 + CCN1C(C(=O)NC23CCC(C(=O)O)(CC2)CC3)C(c2cccc(Cl)c2F)C2(C(=O)Nc3cc(Cl)ccc32)C12CCCCC2 , report its viability, T/C.
Reply text: 88.9

Inquiry: Using the record for NC1CCC(NC2CC2c2ccccc2)CC1 (stereo unspecified) + CCN1C(C(=O)NC23CCC(C(=O)O)(CC2)CC3)C(c2cccc(Cl)c2F)C2(C(=O)Nc3cc(Cl)ccc32)C12CCCCC2 , report its viability, T/C.
Reply text: 88.6

Others:
Inquiry: Using the record for CCN1CCN(Cc2ccc(Nc3ncc(F)c(-c4cc(F)c5nc(C)n(C(C)C)c5c4)n3)nc2)CC1 + CCN1C(C(=O)NC23CCC(C(=O)O)(CC2)CC3)C(c2cccc(Cl)c2F)C2(C(=O)Nc3cc(Cl)ccc32)C12CCCCC2 , report its viability, T/C.
Reply text: 85.1

Inquiry: Using the record for O=C(c1ccc(F)c(F)c1Nc1ccc(I)cc1F)N1CC(O)([C@@H]2CCCCN2)C1 + CCN1C(C(=O)NC23CCC(C(=O)O)(CC2)CC3)C(c2cccc(Cl)c2F)C2(C(=O)Nc3cc(Cl)ccc32)C12CCCCC2 , report its viability, T/C.
Reply text: 90.3

Inquiry: Using the record for COc1c(OCCCN2CCOCC2)ccc2c3n(c(=NC(=O)c4cnc(N)nc4)nc12)CCN3 + CCN1C(C(=O)NC23CCC(C(=O)O)(CC2)CC3)C(c2cccc(Cl)c2F)C2(C(=O)Nc3cc(Cl)ccc32)C12CCCCC2 , report its viability, T/C.
Reply text: 82.4

----------
Measured viability, T/C, listed per entry for reference.
tested on: OVCAR-5 complex spheroid (HUVEC/MSC), viability % T/C; assay: Anticancer human tumor OVCAR-5 cell line growth inhibition [Asc]; conditions: second compound 1 µM; first compound 0.316 µM; active compounds read low;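 further: spheroids exposed to agents for 7 days before readout; 100% = DMSO vehicle-treated wells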
Give the number; % is assumed, so skip it.

In the examples that follow, each entry is paired with its recorded viability, T/C.
Inquiry: Using the record for C=C(F)C(=O)N1CCN(c2nc(OCC3CCCN3C)nc3c2CCN(c2cccc4cccc(Cl)c24)C3)CC1CC#N (stereo unspecified) + Cc1c(S(C)(=O)=O)c(-c2cc(F)cc(N3CCN(c4ccc(NS(=O)(=O)c5ccc(NC(CCN6CCC(C(=O)OCCCP(=O)(O)O)CC6)CSc6ccccc6)c(S(=O)(=O)C(F)(F)F)c5)cc4)CC3)c2)c(-c2ccc(Cl)cc2)n1C(C)C , report its viability, T/C.
Reply text: 83.3

Inquiry: Using the record for C=C(F)C(=O)N1CCN(c2nc(OCC3CCCN3C)nc3c2CCN(c2cccc4cccc(Cl)c24)C3)CC1CC#N (stereo unspecified) + CNC(C)C(=O)NC1CN(S(=O)(=O)c2cccc(S(=O)(=O)N3CCC4CCC(C(=O)NC(c5ccccc5)c5ccccc5)N4C(=O)C(NC(=O)C(C)NC)C3)c2)CCC2CCC(C(=O)NC(c3ccccc3)c3ccccc3)N2C1=O , report its viability, T/C.
Reply text: 67

Inquiry: Using the record for O=C(c1cc(Cc2n[nH]c(=O)c3ccccc23)ccc1F)N1CCN(C(=O)C2CC2)CC1 + CNC(C)C(=O)NC1CN(S(=O)(=O)c2cccc(S(=O)(=O)N3CCC4CCC(C(=O)NC(c5ccccc5)c5ccccc5)N4C(=O)C(NC(=O)C(C)NC)C3)c2)CCC2CCC(C(=O)NC(c3ccccc3)c3ccccc3)N2C1=O , report its viability, T/C.
Reply text: 88.9

Inquiry: Using the record for C#Cc1c(F)ccc2cc(O)cc(-c3ncc4c(N5CC6CCC(C5)N6)nc(OCC56CCCN5CC(F)C6)nc4c3F)c12 (stereo unspecified) + Cc1c(S(C)(=O)=O)c(-c2cc(F)cc(N3CCN(c4ccc(NS(=O)(=O)c5ccc(NC(CCN6CCC(C(=O)OCCCP(=O)(O)O)CC6)CSc6ccccc6)c(S(=O)(=O)C(F)(F)F)c5)cc4)CC3)c2)c(-c2ccc(Cl)cc2)n1C(C)C , report its viability, T/C.
Reply text: 90.1

Others:
Inquiry: Using the record for C=CC(=O)N1CCN(c2nc(=O)n(-c3c(C)ccnc3C(C)C)c3nc(-c4c(O)cccc4F)c(F)cc23)C(C)C1 (stereo unspecified) + Cc1c(S(C)(=O)=O)c(-c2cc(F)cc(N3CCN(c4ccc(NS(=O)(=O)c5ccc(NC(CCN6CCC(C(=O)OCCCP(=O)(O)O)CC6)CSc6ccccc6)c(S(=O)(=O)C(F)(F)F)c5)cc4)CC3)c2)c(-c2ccc(Cl)cc2)n1C(C)C , report its viability, T/C.
Reply text: 111

Inquiry: Using the record for O=C(c1cc(Cc2n[nH]c(=O)c3ccccc23)ccc1F)N1CCN(C(=O)C2CC2)CC1 + Cc1c(S(C)(=O)=O)c(-c2cc(F)cc(N3CCN(c4ccc(NS(=O)(=O)c5ccc(NC(CCN6CCC(C(=O)OCCCP(=O)(O)O)CC6)CSc6ccccc6)c(S(=O)(=O)C(F)(F)F)c5)cc4)CC3)c2)c(-c2ccc(Cl)cc2)n1C(C)C , report its viability, T/C.
Reply text: 88
